// provenance: the OPERA property sets (Mansouri et al. 2018)

attribute measured: logP
// no unit, no text: just the number

CNC(=O)Nc1cccc(OC)c1 : 1.26
O=C(Cc1ccccc1)Nc1cccc(Cl)c1 : 3.61
CCCCCC(C)Nc1nc(Cl)nc(NCC)n1 (centres undefined) : 4.74
CCNc1nc(Cl)nc(NC2CCC2)n1 : 2.77
CCNc1nc(Cl)nc(NCC2CC2)n1 : 2.85
CC(C)CNC(=O)Nc1ccc(Cl)c(Cl)c1 : 4.48
CC1(NC(=O)Nc2ccccc2)CCCCC1 : 3.6
C=CC(C)C(=O)Nc1ccc(Cl)cc1Cl (centres undefined) : 3.49
CCCc1ccc(NC(=O)N(C)C)cc1 : 2.55
CCCC(C)(C)C(=O)Nc1ccc(Cl)cc1 : 3.83

Input: For `CN(C)C(=O)Nc1cccc(Cc2ccccc2)c1` , what is its reported logP?
Output: 2.83

Input: For `C=CCNc1nc(Cl)nc(NCC=C)n1` , what is its reported logP?
Output: 2.75

Input: For CCCC(C)C(=O)Nc1ccc(C)c(Cl)c1 (centres undefined) , what is its reported logP?
Output: 4.31

Input: For `CCNc1nc(Cl)nc(NC2CCCCC2)n1` , what is its reported logP?
Output: 3.63
